# TARGET_SYSTEM: TEC (human)
# PROTOCOL_NOTES: radiometric filter-binding kinase assay, Kinase HotSpot
# CONDITIONS: compound 0.5 µM; ATP 10 µM
QUANTITY_NAME: residual activity (%)
Number only, in %; omit the unit.

Any idea what its residual activity is? The compound is O=C(Nc1cccc(Nc2nccc(Nc3cccc(C(F)(F)F)c3)n2)c1)C1CC1
158

Any idea what its residual activity is? The compound is O=C1NC(=O)C(c2cn(CCCn3ccnc3)c3ccccc23)=C1Nc1ccccc1
162

Any idea what its residual activity is? The compound is CCN(CC)CCNC(=O)c1c(C)[nH]c(/C=C2\C(=O)Nc3ccc(F)cc32)c1C
94.8

Any idea what its residual activity is? The compound is COc1ccc(COc2ccc(Cc3cnc(N)nc3N)cc2OC)cc1
114

Any idea what its residual activity is? The compound is CC(C)N(CCC(=O)c1ccc2ccccc2c1)Cc1ccccc1
115

====

Assign residual activity to each entry below.
# TARGET_SYSTEM: DYRK1A (human) (UniProt Q13627)
# PROTOCOL_NOTES: radiometric filter-binding kinase assay, Kinase HotSpot
# CONDITIONS: compound 0.5 µM; ATP 10 µM
Number only, in %; omit the unit.

Any idea what its residual activity is? The compound is Cc1ccc(S(=O)(=O)/C=C/C#N)cc1
107

Any idea what its residual activity is? The compound is CO[C@H]1CC2CC[C@@H](C)[C@@](O)(O2)C(=O)C(=O)N2CCCC[C@H]2C(=O)OC([C@H](C)C[C@@H]2CC[C@@H](O)[C@H](OC)C2)CC(=O)[C@H](C)/C=C(\C)[C@@H](O)[C@@H](OC)C(=O)[C@H](C)C[C@H](C)/C=C/C=C/C=C/1C (stereo partly drawn)
94.3

Any idea what its residual activity is? The compound is O=C1Nc2ccc(Cl)cc2/C1=C/c1cc(Cl)c(O)c(Cl)c1
95.6

Any idea what its residual activity is? The compound is CNC(=O)c1cc(Oc2ccc(NC(=O)Nc3ccc(Cl)c(C(F)(F)F)c3)cc2)ccn1
103

Any idea what its residual activity is? The compound is Cc1[nH]c(/C=C2\C(=O)Nc3ccc(S(=O)(=O)N(C)c4cccc(Cl)c4)cc32)c(C)c1C(=O)N1CCN(C)CC1
94.1

Any idea what its residual activity is? The compound is O=C(Nc1cccc(Nc2nccc(Nc3cccc(C(F)(F)F)c3)n2)c1)C1CC1
107

Any idea what its residual activity is? The compound is O=S(=O)(c1cccc2cnccc12)N1CCCNCC1
99.4

Any idea what its residual activity is? The compound is Nc1cccc(-c2cc3c(Oc4cccc(O)c4)ncnc3[nH]2)c1
103

====

Assign residual activity to each entry below.
# TARGET_SYSTEM: DSTYK (human) (UniProt Q6XUX3)
# Sequence (Q6XUX3 whole entry, looked up): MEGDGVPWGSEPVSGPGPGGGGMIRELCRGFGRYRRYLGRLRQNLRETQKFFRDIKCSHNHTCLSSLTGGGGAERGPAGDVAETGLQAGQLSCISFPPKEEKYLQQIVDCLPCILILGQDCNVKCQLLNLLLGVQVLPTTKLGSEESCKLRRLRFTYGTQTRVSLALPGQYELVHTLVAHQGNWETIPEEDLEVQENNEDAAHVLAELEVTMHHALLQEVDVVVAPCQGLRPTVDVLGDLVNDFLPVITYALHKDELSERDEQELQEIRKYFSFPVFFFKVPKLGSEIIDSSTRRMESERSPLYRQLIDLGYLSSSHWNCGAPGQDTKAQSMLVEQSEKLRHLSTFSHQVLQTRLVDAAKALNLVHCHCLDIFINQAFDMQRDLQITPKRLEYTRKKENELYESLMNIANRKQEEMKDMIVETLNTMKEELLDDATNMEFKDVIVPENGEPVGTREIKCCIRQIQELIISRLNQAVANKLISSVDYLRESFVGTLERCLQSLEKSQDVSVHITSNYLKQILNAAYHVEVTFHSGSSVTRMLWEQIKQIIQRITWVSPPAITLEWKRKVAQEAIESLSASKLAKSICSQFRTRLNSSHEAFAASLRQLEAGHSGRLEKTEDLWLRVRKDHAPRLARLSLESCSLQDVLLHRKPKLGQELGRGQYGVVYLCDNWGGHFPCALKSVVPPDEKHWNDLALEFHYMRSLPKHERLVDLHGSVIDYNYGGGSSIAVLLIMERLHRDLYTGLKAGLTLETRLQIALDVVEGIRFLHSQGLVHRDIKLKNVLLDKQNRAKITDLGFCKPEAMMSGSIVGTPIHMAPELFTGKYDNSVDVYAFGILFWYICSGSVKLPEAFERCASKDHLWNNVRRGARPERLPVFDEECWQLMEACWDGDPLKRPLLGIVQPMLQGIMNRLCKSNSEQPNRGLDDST
# PROTOCOL_NOTES: radiometric filter-binding kinase assay, Kinase HotSpot
# CONDITIONS: compound 0.5 µM; ATP 10 µM
Number only, in %; omit the unit.

Provide the documented residual activity with DSTYK (human) (UniProt Q6XUX3) as the system for Cc1[nH]c(/C=C2\C(=O)Nc3ccc(S(=O)(=O)N(C)c4cccc(Cl)c4)cc32)c(C)c1C(=O)N1CCN(C)CC1
97.2

Provide the documented residual activity with DSTYK (human) (UniProt Q6XUX3) as the system for CC(C)N(CCC(=O)c1ccc2ccccc2c1)Cc1ccccc1
84.9

Provide the documented residual activity with DSTYK (human) (UniProt Q6XUX3) as the system for O=c1cc(N2CCOCC2)oc2c1ccc1ccccc12
110

Provide the documented residual activity with DSTYK (human) (UniProt Q6XUX3) as the system for O=C1NC(=O)c2c1c1c3ccccc3n3c1c1c2c2ccccc2n1C1CCC3O1
45.5

Provide the documented residual activity with DSTYK (human) (UniProt Q6XUX3) as the system for c1ccc(-c2n[nH]c3c2oc2ccccc23)cc1
82.9

====

# TARGET_SYSTEM: PAK3 (human) (UniProt O75914)
# Sequence (O75914 whole entry, looked up): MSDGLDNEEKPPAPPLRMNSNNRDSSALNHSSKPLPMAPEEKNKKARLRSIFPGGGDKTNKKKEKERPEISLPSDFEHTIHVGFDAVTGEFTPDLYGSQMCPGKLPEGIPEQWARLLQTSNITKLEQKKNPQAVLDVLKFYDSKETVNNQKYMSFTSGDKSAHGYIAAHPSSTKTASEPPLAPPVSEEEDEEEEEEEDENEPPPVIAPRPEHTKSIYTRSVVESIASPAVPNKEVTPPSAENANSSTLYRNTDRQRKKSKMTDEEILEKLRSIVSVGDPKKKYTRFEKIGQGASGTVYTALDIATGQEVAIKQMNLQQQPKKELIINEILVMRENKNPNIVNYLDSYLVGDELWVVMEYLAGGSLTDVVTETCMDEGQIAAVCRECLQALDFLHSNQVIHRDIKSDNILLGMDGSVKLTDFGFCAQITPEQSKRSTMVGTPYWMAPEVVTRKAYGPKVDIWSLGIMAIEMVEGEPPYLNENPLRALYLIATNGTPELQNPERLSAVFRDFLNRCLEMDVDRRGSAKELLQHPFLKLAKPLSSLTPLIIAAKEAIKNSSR
# PROTOCOL_NOTES: radiometric filter-binding kinase assay, Kinase HotSpot
# CONDITIONS: compound 0.5 µM; ATP 10 µM
Assign residual activity to each entry below.
Number only, in %; omit the unit.

Any idea what its residual activity is? The molecule is CCCC(=O)Oc1ccc2[nH]c(C(=O)c3cc4ccccc4[nH]3)cc2c1
102

Any idea what its residual activity is? The molecule is N#C/C(=C(/N)Sc1ccc(N)cc1)c1ccccc1C(F)(F)F
99.2

Any idea what its residual activity is? The molecule is CCOC(=O)c1c(C)[nH]c(/C=C2\C(=O)Nc3ccccc32)c1C
99.1

Any idea what its residual activity is? The molecule is O=S(=O)(c1cccc2cnccc12)N1CCCNCC1
103

Any idea what its residual activity is? The molecule is c1ccc(-c2n[nH]cc2-c2ccnc3ccccc23)nc1
99.7

Any idea what its residual activity is? The molecule is CCN(CC)CCNC(=O)c1c(C)[nH]c(/C=C2\C(=O)Nc3ccc(Cl)cc32)c1C
93.8

Any idea what its residual activity is? The molecule is Cc1[nH]c(/C=C2\C(=O)Nc3ccc(S(=O)(=O)N(C)c4cccc(Cl)c4)cc32)c(C)c1C(=O)N1CCN(C)CC1
93.5

Any idea what its residual activity is? The molecule is Nc1ncnc2c1c(-c1ccc(Oc3ccccc3)cc1)cn2C1CCCC1
98.4

Any idea what its residual activity is? The molecule is COc1cc2ncnc(Nc3cccc(Cl)c3)c2cc1OC
98.9

Any idea what its residual activity is? The molecule is Nc1ccc2ncnc(NCCc3ccc(Oc4ccccc4)cc3)c2c1
102

Any idea what its residual activity is? The molecule is CC#CC(=O)Nc1cc2c(Nc3ccc(F)c(Cl)c3)ncnc2cn1
99

Any idea what its residual activity is? The molecule is COc1ccc2c(c[n+](C)c3c4cc5c(cc4ccc23)OCO5)c1OC
96.6

Any idea what its residual activity is? The molecule is CC[n+]1c(/C=C/N(C)c2ccccc2)n(-c2ccccc2)c2ccc(-c3nc4ccccc4s3)cc21
109

Any idea what its residual activity is? The molecule is CC(=O)c1ccc(N2CCOCC2)cc1O
93.9

Any idea what its residual activity is? The molecule is CCN(CC)C(=O)c1ccc(Nc2nc(OCC3CCCCC3)c3nc[nH]c3n2)cc1
87.7

====

# TARGET_SYSTEM: FGFR2 (human)
# PROTOCOL_NOTES: radiometric filter-binding kinase assay, Kinase HotSpot
# CONDITIONS: compound 0.5 µM; ATP 10 µM
QUANTITY_NAME: residual activity

Any idea what its residual activity is? The compound is CCN(CC)CCNC(=O)c1c(C)[nH]c(/C=C2\C(=O)Nc3ccc(Cl)cc32)c1C
29.3%

Any idea what its residual activity is? The compound is O=C1Nc2ccc(Cl)cc2/C1=C/c1cc(Cl)c(O)c(Cl)c1
92%

Any idea what its residual activity is? The compound is CC#CC(=O)Nc1cc2c(Nc3ccc(F)c(Cl)c3)ncnc2cn1
101%

Any idea what its residual activity is? The compound is O=C1NC(=O)/C(=C/c2ccc3c(c2)OC(F)(F)O3)S1
97.6%

Any idea what its residual activity is? The compound is O=C1NC(=O)c2c1c1c3ccccc3n3c1c1c2c2ccccc2n1C1CCC3O1
34.1%

Any idea what its residual activity is? The compound is CCCC(=O)Oc1ccc2[nH]c(C(=O)c3cc4ccccc4[nH]3)cc2c1
100%

Any idea what its residual activity is? The compound is CNC(=O)c1cc(Oc2ccc(NC(=O)Nc3ccc(Cl)c(C(F)(F)F)c3)cc2)ccn1
72.7%

Any idea what its residual activity is? The compound is COc1ccc(COc2ccc(Cc3cnc(N)nc3N)cc2OC)cc1
102%

Any idea what its residual activity is? The compound is O=C1NC(=O)C(c2cn(CCCn3ccnc3)c3ccccc23)=C1Nc1ccccc1
103%

Any idea what its residual activity is? The compound is Cc1ccc(S(=O)(=O)/C=C/C#N)cc1
102%

====

Assign residual activity to each entry below.
# TARGET_SYSTEM: MAPK3 (human) (UniProt P27361)
# Sequence (P27361 whole entry, looked up): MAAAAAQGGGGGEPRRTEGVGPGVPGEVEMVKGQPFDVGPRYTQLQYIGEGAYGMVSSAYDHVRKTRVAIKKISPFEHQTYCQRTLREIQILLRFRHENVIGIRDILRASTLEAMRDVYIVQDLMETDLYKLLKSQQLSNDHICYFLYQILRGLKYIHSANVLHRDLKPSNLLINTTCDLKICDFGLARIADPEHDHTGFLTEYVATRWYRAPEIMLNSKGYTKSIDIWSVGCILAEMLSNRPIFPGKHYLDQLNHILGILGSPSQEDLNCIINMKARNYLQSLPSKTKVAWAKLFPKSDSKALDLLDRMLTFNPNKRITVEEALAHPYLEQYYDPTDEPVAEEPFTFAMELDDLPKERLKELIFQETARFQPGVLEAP
# PROTOCOL_NOTES: radiometric filter-binding kinase assay, Kinase HotSpot
# CONDITIONS: compound 0.5 µM; ATP 10 µM
Reply with the number and its unit after it.

Provide the documented residual activity with MAPK3 (human) (UniProt P27361) as the system for CC(=O)c1ccc(N2CCOCC2)cc1O
103%

Provide the documented residual activity with MAPK3 (human) (UniProt P27361) as the system for N#C/C(=C(/N)Sc1ccc(N)cc1)c1ccccc1C(F)(F)F
116%

Provide the documented residual activity with MAPK3 (human) (UniProt P27361) as the system for O=C1NC(=O)c2c1c1c3ccccc3n3c1c1c2c2ccccc2n1C1CCC3O1
102%

Provide the documented residual activity with MAPK3 (human) (UniProt P27361) as the system for Nc1ncnc2[nH]nc(Nc3ccc(F)cc3)c12
105%

Provide the documented residual activity with MAPK3 (human) (UniProt P27361) as the system for Nc1ccc2ncnc(NCCc3ccc(Oc4ccccc4)cc3)c2c1
105%

Provide the documented residual activity with MAPK3 (human) (UniProt P27361) as the system for CC#CC(=O)Nc1cc2c(Nc3ccc(F)c(Cl)c3)ncnc2cn1
100%

Provide the documented residual activity with MAPK3 (human) (UniProt P27361) as the system for Nc1cccc(-c2cc3c(Oc4cccc(O)c4)ncnc3[nH]2)c1
86.9%

Provide the documented residual activity with MAPK3 (human) (UniProt P27361) as the system for CCOC(=O)c1c(C)[nH]c(/C=C2\C(=O)Nc3ccccc32)c1C
101%

Provide the documented residual activity with MAPK3 (human) (UniProt P27361) as the system for CCCC(=O)Oc1ccc2[nH]c(C(=O)c3cc4ccccc4[nH]3)cc2c1
87.9%

Provide the documented residual activity with MAPK3 (human) (UniProt P27361) as the system for Nc1ncnc2c1c(-c1ccc(Oc3ccccc3)cc1)cn2C1CCCC1
108%

Provide the documented residual activity with MAPK3 (human) (UniProt P27361) as the system for CNC(=O)c1cc(Oc2ccc(NC(=O)Nc3ccc(Cl)c(C(F)(F)F)c3)cc2)ccn1
105%

Provide the documented residual activity with MAPK3 (human) (UniProt P27361) as the system for CC(C)N(CCC(=O)c1ccc2ccccc2c1)Cc1ccccc1
98.5%

Provide the documented residual activity with MAPK3 (human) (UniProt P27361) as the system for O=C(Nc1cccc(Nc2nccc(Nc3cccc(C(F)(F)F)c3)n2)c1)C1CC1
98.2%

Provide the documented residual activity with MAPK3 (human) (UniProt P27361) as the system for Cc1ccc(Nc2nccc(N(C)c3ccc4c(C)n(C)nc4c3)n2)cc1S(N)(=O)=O
102%

Provide the documented residual activity with MAPK3 (human) (UniProt P27361) as the system for CC[n+]1c(/C=C/N(C)c2ccccc2)n(-c2ccccc2)c2ccc(-c3nc4ccccc4s3)cc21
112%

Provide the documented residual activity with MAPK3 (human) (UniProt P27361) as the system for CNc1cc2c(Nc3cccc(Br)c3)ncnc2cn1
97.3%

Provide the documented residual activity with MAPK3 (human) (UniProt P27361) as the system for COc1ccc(COc2ccc(Cc3cnc(N)nc3N)cc2OC)cc1
99.1%

Provide the documented residual activity with MAPK3 (human) (UniProt P27361) as the system for N#CC(C#N)=C(N)/C(C#N)=C/c1ccc(O)cc1
101%

Provide the documented residual activity with MAPK3 (human) (UniProt P27361) as the system for CCN(CC)C(=O)c1ccc(Nc2nc(OCC3CCCCC3)c3nc[nH]c3n2)cc1
101%

Provide the documented residual activity with MAPK3 (human) (UniProt P27361) as the system for O=c1cc(N2CCOCC2)oc2c1ccc1ccccc12
106%

Provide the documented residual activity with MAPK3 (human) (UniProt P27361) as the system for O=C1Nc2ccc(Cl)cc2/C1=C/c1cc(Cl)c(O)c(Cl)c1
88.2%

Provide the documented residual activity with MAPK3 (human) (UniProt P27361) as the system for Cc1ccc(NC2=CC(=O)c3sc(C)nc3C2=O)cc1
100%

Provide the documented residual activity with MAPK3 (human) (UniProt P27361) as the system for Cc1ccc(S(=O)(=O)/C=C/C#N)cc1
98.2%

Provide the documented residual activity with MAPK3 (human) (UniProt P27361) as the system for CO[C@H]1CC2CC[C@@H](C)[C@@](O)(O2)C(=O)C(=O)N2CCCC[C@H]2C(=O)OC([C@H](C)C[C@@H]2CC[C@@H](O)[C@H](OC)C2)CC(=O)[C@H](C)/C=C(\C)[C@@H](O)[C@@H](OC)C(=O)[C@H](C)C[C@H](C)/C=C/C=C/C=C/1C (stereo not given in full)
104%

Provide the documented residual activity with MAPK3 (human) (UniProt P27361) as the system for COc1ccc2c(c[n+](C)c3c4cc5c(cc4ccc23)OCO5)c1OC
108%

Provide the documented residual activity with MAPK3 (human) (UniProt P27361) as the system for CCN(CC)CCNC(=O)c1c(C)[nH]c(/C=C2\C(=O)Nc3ccc(Cl)cc32)c1C
98.8%

Provide the documented residual activity with MAPK3 (human) (UniProt P27361) as the system for c1ccc(-c2n[nH]c3c2oc2ccccc23)cc1
87.3%

Provide the documented residual activity with MAPK3 (human) (UniProt P27361) as the system for Oc1cccc(-c2nc(N3CCOCC3)c3oc4ncccc4c3n2)c1
94.1%

Provide the documented residual activity with MAPK3 (human) (UniProt P27361) as the system for COc1cc2ncnc(Nc3cccc(Cl)c3)c2cc1OC
96.4%

Provide the documented residual activity with MAPK3 (human) (UniProt P27361) as the system for CCC(=O)Nc1ccc2ncnc(Nc3cccc(Br)c3)c2c1
101%
